target-desc: UniProt:Q14524
Sequence (Q14524 whole entry): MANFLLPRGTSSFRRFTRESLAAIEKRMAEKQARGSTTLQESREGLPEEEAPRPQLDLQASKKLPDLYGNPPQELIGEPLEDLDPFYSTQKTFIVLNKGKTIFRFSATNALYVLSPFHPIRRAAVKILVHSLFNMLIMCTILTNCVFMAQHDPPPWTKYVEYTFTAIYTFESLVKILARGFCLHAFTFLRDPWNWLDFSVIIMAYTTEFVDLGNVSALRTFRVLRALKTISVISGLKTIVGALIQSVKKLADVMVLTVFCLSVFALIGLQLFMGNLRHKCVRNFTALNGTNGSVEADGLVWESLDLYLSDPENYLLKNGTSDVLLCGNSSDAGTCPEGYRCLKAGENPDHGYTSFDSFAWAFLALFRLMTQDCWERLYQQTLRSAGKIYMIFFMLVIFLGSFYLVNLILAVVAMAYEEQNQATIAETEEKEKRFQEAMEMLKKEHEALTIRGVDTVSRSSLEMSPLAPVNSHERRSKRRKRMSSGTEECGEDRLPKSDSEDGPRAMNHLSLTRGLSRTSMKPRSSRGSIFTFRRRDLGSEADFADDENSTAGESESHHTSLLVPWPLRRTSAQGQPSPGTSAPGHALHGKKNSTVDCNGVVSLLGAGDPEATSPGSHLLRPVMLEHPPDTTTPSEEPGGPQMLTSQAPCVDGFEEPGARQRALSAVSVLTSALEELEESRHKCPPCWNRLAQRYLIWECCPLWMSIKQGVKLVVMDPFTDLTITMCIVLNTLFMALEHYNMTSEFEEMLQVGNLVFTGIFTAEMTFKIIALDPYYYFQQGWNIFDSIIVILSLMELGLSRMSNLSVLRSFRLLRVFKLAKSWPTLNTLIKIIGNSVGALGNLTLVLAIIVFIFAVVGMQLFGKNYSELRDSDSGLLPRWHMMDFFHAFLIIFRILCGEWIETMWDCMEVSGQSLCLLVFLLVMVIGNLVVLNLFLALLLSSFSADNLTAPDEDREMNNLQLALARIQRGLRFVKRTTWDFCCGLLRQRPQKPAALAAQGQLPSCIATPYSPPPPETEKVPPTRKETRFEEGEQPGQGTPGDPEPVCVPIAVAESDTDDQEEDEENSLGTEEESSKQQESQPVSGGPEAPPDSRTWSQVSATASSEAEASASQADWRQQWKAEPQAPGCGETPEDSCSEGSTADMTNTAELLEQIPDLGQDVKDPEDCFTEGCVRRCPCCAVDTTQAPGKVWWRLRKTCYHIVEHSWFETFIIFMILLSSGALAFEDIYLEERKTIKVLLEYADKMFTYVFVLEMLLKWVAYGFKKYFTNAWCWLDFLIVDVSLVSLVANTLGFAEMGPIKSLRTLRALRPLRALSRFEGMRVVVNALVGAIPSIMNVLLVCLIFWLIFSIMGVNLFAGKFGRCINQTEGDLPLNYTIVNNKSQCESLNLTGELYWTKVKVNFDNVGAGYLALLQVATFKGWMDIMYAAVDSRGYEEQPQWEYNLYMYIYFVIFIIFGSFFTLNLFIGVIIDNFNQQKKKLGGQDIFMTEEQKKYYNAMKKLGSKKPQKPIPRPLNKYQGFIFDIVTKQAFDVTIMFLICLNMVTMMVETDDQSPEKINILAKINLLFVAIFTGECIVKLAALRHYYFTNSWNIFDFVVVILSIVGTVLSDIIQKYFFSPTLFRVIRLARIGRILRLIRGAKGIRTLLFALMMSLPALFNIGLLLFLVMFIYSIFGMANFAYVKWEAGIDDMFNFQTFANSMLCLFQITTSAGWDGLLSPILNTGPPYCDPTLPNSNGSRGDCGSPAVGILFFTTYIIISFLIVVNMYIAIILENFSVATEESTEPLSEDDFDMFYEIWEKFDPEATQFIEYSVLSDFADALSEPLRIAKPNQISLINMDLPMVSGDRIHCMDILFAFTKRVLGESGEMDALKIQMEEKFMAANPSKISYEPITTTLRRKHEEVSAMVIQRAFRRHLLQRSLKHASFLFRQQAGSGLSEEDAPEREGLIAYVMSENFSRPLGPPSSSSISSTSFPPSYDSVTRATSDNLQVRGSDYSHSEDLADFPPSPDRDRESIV
assay-procedure: in-vitro Nav 1.5 PX data
condition-summary: read-out: Nav 1.5 PX IC50; in-vitro PX (PatchXpress) data

{"compound": "COc1cc(-c2cc(F)cnc2OC)ccc1-c1nccc2cc(S(=O)(=O)Nc3ccon3)ccc12 [Example 31]", "IC50": "> 10 µM"}
{"compound": "COc1cc(Oc2cc(C)ccc2F)ccc1-c1nccc2cc(S(=O)(=O)Nc3nncs3)ccc12 [Example 190]", "IC50": "> 10 µM"}
{"compound": "COc1cc(-c2ccc(-c3nccc4cc(S(=O)(=O)Nc5nncs5)ccc34)c(OC)c2)c(F)cn1 [Example 189]", "IC50": "> 30 µM"}
{"compound": "COc1ccc(F)cc1-c1cc(OC)c(-c2ncnc3cc(S(=O)(=O)Nc4ccon4)ccc23)cc1C [Example 191]", "IC50": "> 10 µM"}
{"compound": "COc1cc(Oc2ccc(F)cc2)ccc1-c1nccc2cc(S(=O)(=O)Nc3nncs3)ccc12 [Example 174]", "IC50": "> 10 µM"}
{"compound": "COc1cc(-c2ccc(F)cc2)c(C#N)cc1-c1nccc2cc(S(=O)(=O)Nc3ccncn3)ccc12 [Example 186]", "IC50": "> 10 µM"}
